The values you see were collected from PubChem BioAssay AID1963982.

- Tested on: 313798-341-R-J2-PDC spheroids, viability
- experiment.notes: Anticancer human tumor 313798-341-R-J2-PDC patient-derived cervical squamous cell carcinoma cell line growth inhibition [PI3K]
- cond: second compound 0.1 µM; first compound 0.1 µM; stronger effect = lower value; spheroids with HUVEC and MSC
Items are presented alongside their recorded viability, T/C.

molecule: Cn1nccc1Nc1nccc(-c2ccn(C(CO)c3ccc(Cl)c(F)c3)c(=O)c2)n1 (stereo unspecified) + CC(Nc1ccc2c(c1)OCCn1cc(N3C(=O)OCC3C(F)F)nc1-2)C(N)=O
measurement.target: 313798-341-R-J2-PDC spheroids, viability
viability, T/C / %: 95
//
molecule: CNC(=O)c1ccc(N2C(=S)N(c3ccc(C#N)c(C(F)(F)F)c3)C(=O)C2(C)C)cc1F + Cc1nc(NC(=O)N2CCCC2C(N)=O)sc1-c1ccnc(C(C)(C)C(F)(F)F)c1
measurement.target: 313798-341-R-J2-PDC spheroids, viability
viability, T/C / %: 101
//
molecule: CNC(=O)c1ccc(N2C(=S)N(c3ccc(C#N)c(C(F)(F)F)c3)C(=O)C2(C)C)cc1F + COc1c(OCCCN2CCOCC2)ccc2c3n(c(=NC(=O)c4cnc(N)nc4)nc12)CCN3
measurement.target: 313798-341-R-J2-PDC spheroids, viability
viability, T/C / %: 42.9
//
molecule: CC1(C)CCC(Nc2ncc(C(F)(F)F)c(-c3c[nH]c4c(P(C)(C)=O)c(C#N)ccc34)n2)CN1 (stereo unspecified) + COc1c(OCCCN2CCOCC2)ccc2c3n(c(=NC(=O)c4cnc(N)nc4)nc12)CCN3
measurement.target: 313798-341-R-J2-PDC spheroids, viability
viability, T/C / %: 21.1
//
molecule: Cn1ncc(Cl)c1-c1cc(C(=O)NC(CN)Cc2cccc(F)c2)sc1Cl (stereo unspecified) + CC(Nc1ccc2c(c1)OCCn1cc(N3C(=O)OCC3C(F)F)nc1-2)C(N)=O
measurement.target: 313798-341-R-J2-PDC spheroids, viability
viability, T/C / %: 95.7
//
molecule: CC1(C)CCC(CN2CCN(c3ccc(C(=O)NS(=O)(=O)c4ccc(NCC5CCOCC5)c([N+](=O)[O-])c4)c(Oc4cnc5[nH]ccc5c4)c3)CC2)=C(c2ccc(Cl)cc2)C1 + CC(Nc1ncnc2nc[nH]c12)c1cc2cccc(Cl)c2c(=O)n1-c1ccccc1
measurement.target: 313798-341-R-J2-PDC spheroids, viability
viability, T/C / %: 108
//
molecule: CCN1CCN(Cc2ccc(Nc3ncc(F)c(-c4cc(F)c5nc(C)n(C(C)C)c5c4)n3)nc2)CC1 + CC(Nc1ccc2c(c1)OCCn1cc(N3C(=O)OCC3C(F)F)nc1-2)C(N)=O
measurement.target: 313798-341-R-J2-PDC spheroids, viability
viability, T/C / %: 107
//
molecule: CC(C)n1nc(-c2ccc3oc(N)nc3c2)c2c(N)ncnc21 + CC(Nc1ncnc2nc[nH]c12)c1cc2cccc(Cl)c2c(=O)n1-c1ccccc1
measurement.target: 313798-341-R-J2-PDC spheroids, viability
viability, T/C / %: 39.1
//
molecule: Cn1ncnc1[C@H]1c2n[nH]c(=O)c3cc(F)cc(c23)N[C@@H]1c1ccc(F)cc1 + Cc1nc(NC(=O)N2CCCC2C(N)=O)sc1-c1ccnc(C(C)(C)C(F)(F)F)c1
measurement.target: 313798-341-R-J2-PDC spheroids, viability
viability, T/C / %: 87
//
molecule: CCCS(=O)(=O)Nc1ccc(F)c(C(=O)c2c[nH]c3ncc(-c4ccc(Cl)cc4)cc23)c1F + Cc1nc(NC(=O)N2CCCC2C(N)=O)sc1-c1ccnc(C(C)(C)C(F)(F)F)c1
measurement.target: 313798-341-R-J2-PDC spheroids, viability
viability, T/C / %: 105
//
molecule: C[C@@H](NC(=O)c1ncnc(N)c1Cl)c1ncc(C(=O)Nc2cc(C(F)(F)F)c(Cl)cn2)s1 + CC(Nc1ccc2c(c1)OCCn1cc(N3C(=O)OCC3C(F)F)nc1-2)C(N)=O
measurement.target: 313798-341-R-J2-PDC spheroids, viability
viability, T/C / %: 78

====

- System: 313798-341-R-J2-PDC spheroids, viability
- experiment.notes: Anticancer human tumor 313798-341-R-J2-PDC cell line growth inhibition [PI3K];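 also: spheroids exposed to compounds for seven days; 100% = DMSO vehicle control viability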
- cond: second compound 0.1 µM; first compound 10 µM; stronger effect = lower value; spheroids with HUVEC and MSC
- Description: Combinatorial screen of targeted agents with the PI3K inhibitors inavolisib, alpelisib, duvelisib, and copanlisib in multi-cell type tumor spheroids A high-throughput screen of multi-cell type tumor spheroids was designed to identify active combinations of targeted small molecules and PI3K pathway inhibitors. […] Compounds. […] If the clinical Cmax for an agent had not been determined, the highest concentration tested was 10 microM. […]

molecule: Cn1nccc1Nc1nccc(-c2ccn(C(CO)c3ccc(Cl)c(F)c3)c(=O)c2)n1 (stereo unspecified) + CC(Nc1ccc2c(c1)OCCn1cc(N3C(=O)OCC3C(F)F)nc1-2)C(N)=O
measurement.target: 313798-341-R-J2-PDC spheroids, viability
viability, T/C / %: 80.2
--
molecule: CNC(=O)c1ccc(N2C(=S)N(c3ccc(C#N)c(C(F)(F)F)c3)C(=O)C2(C)C)cc1F + CC(Nc1ccc2c(c1)OCCn1cc(N3C(=O)OCC3C(F)F)nc1-2)C(N)=O
measurement.target: 313798-341-R-J2-PDC spheroids, viability
viability, T/C / %: 77.6
--
molecule: CC1(C)CCC(CN2CCN(c3ccc(C(=O)NS(=O)(=O)c4ccc(NCC5CCOCC5)c([N+](=O)[O-])c4)c(Oc4cnc5[nH]ccc5c4)c3)CC2)=C(c2ccc(Cl)cc2)C1 + COc1c(OCCCN2CCOCC2)ccc2c3n(c(=NC(=O)c4cnc(N)nc4)nc12)CCN3
measurement.target: 313798-341-R-J2-PDC spheroids, viability
viability, T/C / %: 41.2
--
molecule: C=CC(=O)N1CCN(c2nc(=O)n(-c3c(C)ccnc3C(C)C)c3nc(-c4c(O)cccc4F)c(F)cc23)C(C)C1 (stereo unspecified) + CC(Nc1ccc2c(c1)OCCn1cc(N3C(=O)OCC3C(F)F)nc1-2)C(N)=O
measurement.target: 313798-341-R-J2-PDC spheroids, viability
viability, T/C / %: 100
--
molecule: CNC(=O)c1ccc(N2C(=S)N(c3ccc(C#N)c(C(F)(F)F)c3)C(=O)C2(C)C)cc1F + Cc1nc(NC(=O)N2CCCC2C(N)=O)sc1-c1ccnc(C(C)(C)C(F)(F)F)c1
measurement.target: 313798-341-R-J2-PDC spheroids, viability
viability, T/C / %: 114
--
molecule: CC1(C)CCC(Nc2ncc(C(F)(F)F)c(-c3c[nH]c4c(P(C)(C)=O)c(C#N)ccc34)n2)CN1 (stereo unspecified) + CC(Nc1ncnc2nc[nH]c12)c1cc2cccc(Cl)c2c(=O)n1-c1ccccc1
measurement.target: 313798-341-R-J2-PDC spheroids, viability
viability, T/C / %: 66.6
--
molecule: CC1(C)CCC(Nc2ncc(C(F)(F)F)c(-c3c[nH]c4c(P(C)(C)=O)c(C#N)ccc34)n2)CN1 (stereo unspecified) + Cc1nc(NC(=O)N2CCCC2C(N)=O)sc1-c1ccnc(C(C)(C)C(F)(F)F)c1
measurement.target: 313798-341-R-J2-PDC spheroids, viability
viability, T/C / %: 66.6
--
molecule: CNC(=O)c1ccc(N2C(=S)N(c3ccc(C#N)c(C(F)(F)F)c3)C(=O)C2(C)C)cc1F + COc1c(OCCCN2CCOCC2)ccc2c3n(c(=NC(=O)c4cnc(N)nc4)nc12)CCN3
measurement.target: 313798-341-R-J2-PDC spheroids, viability
viability, T/C / %: 31.8
--
molecule: CNC(=O)c1ccc(N2C(=S)N(c3ccc(C#N)c(C(F)(F)F)c3)C(=O)C2(C)C)cc1F + CC(Nc1ncnc2nc[nH]c12)c1cc2cccc(Cl)c2c(=O)n1-c1ccccc1
measurement.target: 313798-341-R-J2-PDC spheroids, viability
viability, T/C / %: 101
--
molecule: CC(C)NCC(C(=O)N1CCN(c2ncnc3c2C(C)CC3O)CC1)c1ccc(Cl)cc1 (stereo unspecified) + Cc1nc(NC(=O)N2CCCC2C(N)=O)sc1-c1ccnc(C(C)(C)C(F)(F)F)c1
measurement.target: 313798-341-R-J2-PDC spheroids, viability
viability, T/C / %: 33.6
--
molecule: CC(C)NCC(C(=O)N1CCN(c2ncnc3c2C(C)CC3O)CC1)c1ccc(Cl)cc1 (stereo unspecified) + CC(Nc1ncnc2nc[nH]c12)c1cc2cccc(Cl)c2c(=O)n1-c1ccccc1
measurement.target: 313798-341-R-J2-PDC spheroids, viability
viability, T/C / %: 30.5

====

- System: 313798-341-R-J2-PDC spheroids, viability
- experiment.notes: Anticancer human tumor 313798-341-R-J2-PDC cell line growth inhibition [PI3K];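 also: spheroids exposed to compounds for seven days; 100% = DMSO vehicle control viability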
- cond: second compound 0.1 µM; first compound 0.0949 µM; stronger effect = lower value; spheroids with HUVEC and MSC
- Description: Combinatorial screen of targeted agents with the PI3K inhibitors inavolisib, alpelisib, duvelisib, and copanlisib in multi-cell type tumor spheroids A high-throughput screen of multi-cell type tumor spheroids was designed to identify active combinations of targeted small molecules and PI3K pathway inhibitors. […] Compounds. […] If the clinical Cmax for an agent had not been determined, the highest concentration tested was 10 microM. […]

compound: Cn1cnc2c(F)c(Nc3ccc(Br)cc3Cl)c(C(=O)NOCCO)cc21 + COc1c(OCCCN2CCOCC2)ccc2c3n(c(=NC(=O)c4cnc(N)nc4)nc12)CCN3
viability, T/C (%): 32.3
//
compound: Cn1cnc2c(F)c(Nc3ccc(Br)cc3Cl)c(C(=O)NOCCO)cc21 + Cc1nc(NC(=O)N2CCCC2C(N)=O)sc1-c1ccnc(C(C)(C)C(F)(F)F)c1
viability, T/C (%): 98
//
compound: Cn1cnc2c(F)c(Nc3ccc(Br)cc3Cl)c(C(=O)NOCCO)cc21 + CC(Nc1ccc2c(c1)OCCn1cc(N3C(=O)OCC3C(F)F)nc1-2)C(N)=O
viability, T/C (%): 66.2
//
compound: Cn1cnc2c(F)c(Nc3ccc(Br)cc3Cl)c(C(=O)NOCCO)cc21 + CC(Nc1ncnc2nc[nH]c12)c1cc2cccc(Cl)c2c(=O)n1-c1ccccc1
viability, T/C (%): 89
